Values from patent US20230081426A1

Target: G12V-mutant human KRAS (amino acid residues 1-188) (Homo sapiens, UniProt P01116, G12V)
Construct: G12V-mutant human KRAS (amino acid residues 1-188) with FLAG tag was purified from E. coli; made in house; host or cells: E. coli
Assay: KRAS Binding Competition Assay (AlphaScreen; biotinylated KRpep-2d analogue), G12V
Conditions: geometric mean, read-out: KRAS GMean IC50 (uM) MUTATION: G12V
Listed compounds paired with reported IC50

Prompt line: // IC50 lookup, key: CN(C)C(C)(C)CNc1nc(N2C[C@H]3CC[C@@H](C2)N3)c2ccc(-c3cc(O)cc4ccccc34)c(F)c2n1
Response line: 10 to 100 µM

Prompt line: // IC50 lookup, key: CN1CCC[C@H]1COc1nc(N2[C@@H]3CC[C@H]2CN(C(=O)Nc2cccnc2)C3)c2ccc(-c3cc(O)cc4ccccc34)cc2n1
Response line: 10 to 100 µM

Prompt line: // IC50 lookup, key: O=C(CN1[C@@H]2CC[C@H]1CN(c1nc(OCC34CCCN3CCC4)nc3cc(-c4cc(O)cc5ccccc45)ccc13)C2)C1CCNCC1
Response line: 0.0001 to 10 µM
